Target: Cytochrome P450 2C9 (Homo sapiens)
Assay: qHTS Assay for Inhibitors and Substrates of Cytochrome P450 2C9 (AID 883); also: nearly all actives have a fitted effect of over 60% in size
Settings: recombinant CYP2C9, luciferin-H luminescence, 60 min; series mostly up to 57.1 µM
Procedure: NIH Molecular Libraries Screening Centers Network [MLSCN] NIH Chemical Genomics Center [NCGC] MLSCN Grant: None NCGC Assay Overview: The P450 gene superfamily is involved in the metabolism and clearance of xenobiotics. […] The luciferin is then measured by luminescence after the addition of a luciferase detection reagent. […] Inhibitors and some substrates limit the production of luciferin, and decrease measured luminescence. […]
Records with an inconclusive call do not appear. Active and inactive are the calls of the source. Calls follow the shape of the dose curve; as a rule, active = well fitted inhibition curve with a large enough effect; inconclusive = small, poorly fitted or top-dose-only effect; inactive = no such curve, though single readings can be large or run the other way.
Your response should consist of one outcome taken from true for active, false for inactive

Req: Hi team, can someone confirm the assay call for `COc1c2ccoc2nc2c(OC)c(OC[C@H](O)C(C)(C)O)ccc12` ?
Resp: false

Req: Record request — test call for `COc1ccc(Oc2ncc3nc(-c4cn(C)c5ccccc45)c(=O)n(C)c3n2)cc1`
Resp: false

Req: For `COc1ccc(Oc2ncc3nc(-c4cccs4)c(=O)n(C)c3n2)cc1` , which call appears in the assay record?
Resp: true

Req: Dear all, I need the recorded test outcome for `COc1ccc2[nH]cc(CCNc3ncnc4ccc(-c5ccccc5C#N)cc34)c2c1` , thank you.
Resp: true

Req: Recorded test outcome, item `CS(=O)(=O)c1ccc(Cn2c3c(c4cc(F)cc(F)c42)CCC[C@H]3CC(=O)O)cc1`
Resp: false

Req: Please state the recorded outcome for this compound: `COCCn1c(=O)c(-c2ccc(Cl)cc2)nc2cnc(Oc3ccccc3)nc21`
Resp: true

Req: Recorded test call requested for `CC[C@@]12CCCN3CCc4c(n(c5ccccc45)[C@](O)(C(=O)OC)C1)[C@H]32`
Resp: false

Req: Answer briefly: the call reported for `COc1ccc(NC(=O)N2CC[C@@]3(CCCN(C(=O)c4c(C)noc4C)C3)C2)cc1` in this assay.
Resp: false

Req: # lookup: test call for `COc1cccc(Cn2c(=O)c(-c3cccs3)nc3cnc(OC)nc32)c1`
Resp: true

Req: Entry `COc1cccc(Cn2c(=O)c(-c3cc(F)cc(F)c3)nc3cnc(N4CCNCC4)nc32)c1` : call = ?
Resp: true

Req: How did this test come out for `COc1cccc(Cn2c(=O)c(-c3cc(F)cc(F)c3)nc3cnc(N4CCOCC4)nc32)c1` ?
Resp: false

Req: Hi, do you know how `COCCn1c(=O)c(-c2cc(F)cc(F)c2)nc2cnc(Oc3cccc(Cl)c3)nc21` came out in this test?
Resp: true

Req: Called result for `CS(=O)(=O)N1CCC2(CC1)CN(c1ccc(-c3ccccc3)cc1)C2`
Resp: false

Req: Test call for this compound, please: `Cc1ccccc1[C@@H](OCCN(C)C)c1ccccc1`
Resp: false

Req: Could you kindly confirm the outcome this assay logged for `COc1ccccc1CNc1ncnc2ccc(-c3ccccc3OC)cc12` ?
Resp: true

Req: Please indicate how the test categorized `N#CCCn1c(=O)cnc2cnc(N3CCNCC3)nc21` .
Resp: false

Req: // return assay outcome for `Cc1noc(C)c1C(=O)N1CCC[C@@]2(CCN(Cc3ccc(C#N)cc3)C2)C1`
Resp: false

Req: Could you please tell me the result logged for `COc1ccc2[nH]cc(CCNc3ncncc3-c3cccc(NS(C)(=O)=O)c3)c2c1` in this assay?
Resp: true

Req: Test call, this compound: `COc1c(-c2ccc(O)c(O)c2)oc2cc(O)cc(O)c2c1=O`
Resp: false

Req: Please indicate how the test categorized `O=c1cnc2cnc(N3CCOCC3)nc2n1C[C@H]1CCCO1` .
Resp: false

Req: Assay outcome for `COc1ccc(Oc2ncc3nc(-c4cn(C)c5ccccc45)c(=O)n(CCC#N)c3n2)cc1` : what was it?
Resp: false
